- system name: Tyrosine-protein kinase JAK2 (Homo sapiens);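 further: mean JAK2 inhibition from the GSK PKIS screen, compounds tested at 1 µM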
- test settings: at 1 µM
Collected inhibition values appear next to each entry.
Numeric answer only, unit % assumed.

// worked examples, inhibition included
COc1cccc(COc2cc(-n3cnc4ccccc43)sc2C(N)=O)c1 -2.1
Nc1nonc1-c1nc2cnccc2n1C1CCCCC1 -0.41

In: Name the reported inhibition value associated with the compound `NS(=O)(=O)c1ccc(-c2ccc3c(NC(=O)C4CC4)n[nH]c3c2)cc1`
Out: 2.65

In: What value of inhibition has been recorded for this entry: `Cc1cc(-c2ccco2)cc(C)c1/C=C/c1cncc(-c2nn[nH]n2)c1`
Out: -0.44

In: Request the reported inhibition associated with `Fc1ccc(-c2ncn(C3CCNCC3)c2-c2ccnc(Oc3ccccc3)n2)cc1`
Out: -0.02

In: May I ask what inhibition has been recorded for `COc1cccc(-n2ncc3c(N/N=C/c4ccncc4)ncnc32)c1` ?
Out: 13.5

In: Can you look up the measured inhibition of `CCn1c(-c2nonc2N)nc2c(C#CC(C)(C)O)nc(O[C@@H](CN)c3ccccc3)cc21` for me?
Out: 0.78

====

- system name: Ephrin type-A receptor 3 (Homo sapiens) (UniProt P29320);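 further: values are mean inhibition of EPHA3, from the GSK PKIS dataset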
- Sequence (P29320 whole entry): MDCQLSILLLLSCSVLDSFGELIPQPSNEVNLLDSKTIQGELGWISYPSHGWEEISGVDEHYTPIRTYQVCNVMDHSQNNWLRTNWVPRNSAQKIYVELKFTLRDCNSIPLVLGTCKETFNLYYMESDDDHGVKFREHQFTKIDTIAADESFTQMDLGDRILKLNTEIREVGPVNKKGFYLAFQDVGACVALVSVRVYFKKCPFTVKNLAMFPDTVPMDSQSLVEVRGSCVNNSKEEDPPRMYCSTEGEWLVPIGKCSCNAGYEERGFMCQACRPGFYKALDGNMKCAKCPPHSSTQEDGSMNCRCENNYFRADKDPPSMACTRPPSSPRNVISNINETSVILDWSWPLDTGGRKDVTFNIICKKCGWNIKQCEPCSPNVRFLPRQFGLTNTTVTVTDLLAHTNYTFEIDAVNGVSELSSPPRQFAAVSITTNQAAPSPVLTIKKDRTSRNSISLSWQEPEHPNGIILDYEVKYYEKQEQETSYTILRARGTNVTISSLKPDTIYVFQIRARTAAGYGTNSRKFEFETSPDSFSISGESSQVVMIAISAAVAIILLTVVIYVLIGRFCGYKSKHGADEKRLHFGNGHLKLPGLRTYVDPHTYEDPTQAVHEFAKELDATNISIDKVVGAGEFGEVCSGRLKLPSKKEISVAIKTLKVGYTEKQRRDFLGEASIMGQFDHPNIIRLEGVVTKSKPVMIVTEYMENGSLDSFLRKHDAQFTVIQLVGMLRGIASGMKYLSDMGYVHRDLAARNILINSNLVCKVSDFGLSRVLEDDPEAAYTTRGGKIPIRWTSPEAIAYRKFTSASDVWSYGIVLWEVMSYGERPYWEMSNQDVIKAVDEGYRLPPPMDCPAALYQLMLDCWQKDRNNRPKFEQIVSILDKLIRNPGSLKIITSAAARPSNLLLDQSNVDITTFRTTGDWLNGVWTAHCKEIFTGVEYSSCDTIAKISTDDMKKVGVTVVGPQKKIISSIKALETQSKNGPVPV
- test settings: at 0.1 µM
result type: inhibition (%)
Just the number please, in %, no unit attached.

NS(=O)(=O)c1ccc(N/C=C2\C(=O)Nc3ccc4ncsc4c32)cc1 3.37
COc1cccc(COc2cc(-n3cnc4ccccc43)sc2C(N)=O)c1 2.67

In: Consider the compound shown here: `NS(=O)(=O)c1ccc(-c2ccc3c(NC(=O)C4CC4)n[nH]c3c2)cc1` What is its recorded inhibition?
Out: 2.34

In: // lookup inhibition for `Fc1ccc(-c2ncn(C3CCNCC3)c2-c2ccnc(Oc3ccccc3)n2)cc1`
Out: -1.44

In: // inhibition lookup, key: `CCn1c(-c2nonc2N)nc2c(C#CCN)ncc(OCCCN)c21`
Out: -2.35

====

- System: Mast/stem cell growth factor receptor Kit (Homo sapiens), P10721 [T670I]
- Sequence (P10721 whole entry T670I): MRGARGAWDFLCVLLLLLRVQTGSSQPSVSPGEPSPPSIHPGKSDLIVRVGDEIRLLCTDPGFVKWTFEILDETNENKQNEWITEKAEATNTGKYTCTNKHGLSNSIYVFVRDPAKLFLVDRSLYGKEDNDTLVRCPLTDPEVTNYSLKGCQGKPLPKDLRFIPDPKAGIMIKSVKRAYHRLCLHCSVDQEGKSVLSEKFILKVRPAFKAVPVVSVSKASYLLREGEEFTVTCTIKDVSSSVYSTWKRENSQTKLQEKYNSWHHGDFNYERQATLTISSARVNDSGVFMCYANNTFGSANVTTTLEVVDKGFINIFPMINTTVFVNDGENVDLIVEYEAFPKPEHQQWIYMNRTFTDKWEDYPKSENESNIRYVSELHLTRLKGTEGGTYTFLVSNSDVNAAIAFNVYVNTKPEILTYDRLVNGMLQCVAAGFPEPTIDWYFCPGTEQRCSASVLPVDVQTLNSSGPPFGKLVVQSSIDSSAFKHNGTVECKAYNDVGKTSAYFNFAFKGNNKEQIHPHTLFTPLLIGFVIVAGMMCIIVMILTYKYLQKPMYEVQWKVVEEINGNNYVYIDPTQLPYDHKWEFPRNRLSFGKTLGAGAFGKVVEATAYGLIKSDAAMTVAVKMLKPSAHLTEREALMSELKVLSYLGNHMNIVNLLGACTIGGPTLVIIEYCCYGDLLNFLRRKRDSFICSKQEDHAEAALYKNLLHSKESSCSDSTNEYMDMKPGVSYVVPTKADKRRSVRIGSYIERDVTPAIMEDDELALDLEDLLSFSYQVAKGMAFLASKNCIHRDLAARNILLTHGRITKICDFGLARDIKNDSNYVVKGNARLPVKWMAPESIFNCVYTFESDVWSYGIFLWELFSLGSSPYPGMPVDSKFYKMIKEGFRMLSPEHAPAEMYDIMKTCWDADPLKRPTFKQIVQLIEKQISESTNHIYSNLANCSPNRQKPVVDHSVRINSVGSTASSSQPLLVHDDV
- test settings: at 0.1 µM
result type: inhibition (%)
Give the value in % but do not write % after it.

CCn1c(-c2nonc2N)nc2c(C#CC(C)(C)O)nc(O[C@@H](CN)c3ccccc3)cc21 -0.51
NS(=O)(=O)c1ccc(N/C=C2\C(=O)Nc3ccc4ncsc4c32)cc1 12.1
Cc1cc(-c2ccco2)cc(C)c1/C=C/c1cncc(-c2nn[nH]n2)c1 1.44
NC(=O)c1sc(-n2cnc3cc(C(F)(F)F)ccc32)cc1OCc1ccccc1Br 0.92

In: Give its inhibition value. Item: `COc1cccc(-n2ncc3c(N/N=C/c4ccncc4)ncnc32)c1`
Out: 9.47

In: For the molecule `COc1cc2c(cc1Nc1nc(Nc3ccsc3C(N)=O)c3cc[nH]c3n1)N(C(=O)CN(C)C)CCC2` , what inhibition is on record?
Out: -0.99

====

- system name: Testis-specific serine/threonine-protein kinase 2 (Homo sapiens) (UniProt Q96PF2);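 further: each value is the mean percent inhibition of TSSK2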
- Sequence (Q96PF2 whole entry): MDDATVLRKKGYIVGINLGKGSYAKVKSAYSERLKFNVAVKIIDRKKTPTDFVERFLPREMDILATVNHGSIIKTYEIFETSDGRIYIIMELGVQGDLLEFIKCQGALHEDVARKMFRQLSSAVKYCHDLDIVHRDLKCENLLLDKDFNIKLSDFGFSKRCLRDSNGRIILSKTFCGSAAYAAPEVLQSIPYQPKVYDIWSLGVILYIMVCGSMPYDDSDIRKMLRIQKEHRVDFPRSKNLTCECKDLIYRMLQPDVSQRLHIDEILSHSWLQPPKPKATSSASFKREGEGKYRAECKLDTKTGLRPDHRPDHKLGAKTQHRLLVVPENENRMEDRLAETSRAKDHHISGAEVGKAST
- test settings: at 1 µM
result type: inhibition (%)
Your answer should be a plain number; it is taken to be in %.

Here is how some molecules turned out for inhibition.
COc1cc(C=NNc2ncnc3c2cnn3Cc2ccccc2)ccc1O -2.56
COc1cccc(COc2cc(-n3cnc4ccccc43)sc2C(N)=O)c1 -0.49
NS(=O)(=O)c1ccc(-c2ccc3c(NC(=O)C4CC4)n[nH]c3c2)cc1 -2.52
Nc1nonc1-c1nc2cnccc2n1C1CCCCC1 -2.07
COc1cccc(-n2ncc3c(N/N=C/c4ccncc4)ncnc32)c1 2.48

Moving on to the next molecule.
In: inhibition for `CCn1c(-c2nonc2N)nc2c(C#CCN)ncc(OCCCN)c21` ?
Out: 4.75

====

Entries and their measured inhibition follow.
- system name: Rhodopsin kinase GRK7 (Homo sapiens);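 further: reported figures are mean percent inhibition of GRK7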
- Sequence (whole entry): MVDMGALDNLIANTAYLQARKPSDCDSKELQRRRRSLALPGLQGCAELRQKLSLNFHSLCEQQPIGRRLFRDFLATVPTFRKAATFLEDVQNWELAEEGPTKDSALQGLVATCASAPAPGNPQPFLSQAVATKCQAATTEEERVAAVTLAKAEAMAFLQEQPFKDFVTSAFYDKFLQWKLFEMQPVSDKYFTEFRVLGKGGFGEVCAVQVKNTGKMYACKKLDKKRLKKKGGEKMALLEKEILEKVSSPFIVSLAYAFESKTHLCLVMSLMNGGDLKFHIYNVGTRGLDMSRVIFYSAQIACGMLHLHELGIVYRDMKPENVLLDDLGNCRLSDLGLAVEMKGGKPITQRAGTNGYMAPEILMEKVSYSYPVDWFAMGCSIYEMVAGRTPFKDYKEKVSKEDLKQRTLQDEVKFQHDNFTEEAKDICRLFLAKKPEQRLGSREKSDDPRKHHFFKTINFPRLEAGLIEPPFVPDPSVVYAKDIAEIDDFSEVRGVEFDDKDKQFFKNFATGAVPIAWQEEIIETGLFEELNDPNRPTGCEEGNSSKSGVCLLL
- test settings: at 0.1 µM
The answer is to be given in %; state only the numeric part.

Observe how each entry below is paired with its result.
CCn1c(-c2nonc2N)nc2c(C#CC(C)(C)O)nc(O[C@@H](CN)c3ccccc3)cc21 3
COc1cccc(COc2cc(-n3cnc4ccccc43)sc2C(N)=O)c1 4.74
Cc1cc(-c2ccco2)cc(C)c1/C=C/c1cncc(-c2nn[nH]n2)c1 11.8
COc1cc2c(cc1Nc1nc(Nc3ccsc3C(N)=O)c3cc[nH]c3n1)N(C(=O)CN(C)C)CCC2 22.1
CCn1c(-c2nonc2N)nc2c(C#CCN)ncc(OCCCN)c21 0.4
Fc1ccc(-c2ncn(C3CCNCC3)c2-c2ccnc(Oc3ccccc3)n2)cc1 8.55

In: # inhibition lookup, item `NC(=O)c1sc(-n2cnc3cc(C(F)(F)F)ccc32)cc1OCc1ccccc1Br`
Out: 5.6

====

- System: Epidermal growth factor receptor (Homo sapiens), P00533 [L858R]
- Sequence (P00533 whole entry L858R): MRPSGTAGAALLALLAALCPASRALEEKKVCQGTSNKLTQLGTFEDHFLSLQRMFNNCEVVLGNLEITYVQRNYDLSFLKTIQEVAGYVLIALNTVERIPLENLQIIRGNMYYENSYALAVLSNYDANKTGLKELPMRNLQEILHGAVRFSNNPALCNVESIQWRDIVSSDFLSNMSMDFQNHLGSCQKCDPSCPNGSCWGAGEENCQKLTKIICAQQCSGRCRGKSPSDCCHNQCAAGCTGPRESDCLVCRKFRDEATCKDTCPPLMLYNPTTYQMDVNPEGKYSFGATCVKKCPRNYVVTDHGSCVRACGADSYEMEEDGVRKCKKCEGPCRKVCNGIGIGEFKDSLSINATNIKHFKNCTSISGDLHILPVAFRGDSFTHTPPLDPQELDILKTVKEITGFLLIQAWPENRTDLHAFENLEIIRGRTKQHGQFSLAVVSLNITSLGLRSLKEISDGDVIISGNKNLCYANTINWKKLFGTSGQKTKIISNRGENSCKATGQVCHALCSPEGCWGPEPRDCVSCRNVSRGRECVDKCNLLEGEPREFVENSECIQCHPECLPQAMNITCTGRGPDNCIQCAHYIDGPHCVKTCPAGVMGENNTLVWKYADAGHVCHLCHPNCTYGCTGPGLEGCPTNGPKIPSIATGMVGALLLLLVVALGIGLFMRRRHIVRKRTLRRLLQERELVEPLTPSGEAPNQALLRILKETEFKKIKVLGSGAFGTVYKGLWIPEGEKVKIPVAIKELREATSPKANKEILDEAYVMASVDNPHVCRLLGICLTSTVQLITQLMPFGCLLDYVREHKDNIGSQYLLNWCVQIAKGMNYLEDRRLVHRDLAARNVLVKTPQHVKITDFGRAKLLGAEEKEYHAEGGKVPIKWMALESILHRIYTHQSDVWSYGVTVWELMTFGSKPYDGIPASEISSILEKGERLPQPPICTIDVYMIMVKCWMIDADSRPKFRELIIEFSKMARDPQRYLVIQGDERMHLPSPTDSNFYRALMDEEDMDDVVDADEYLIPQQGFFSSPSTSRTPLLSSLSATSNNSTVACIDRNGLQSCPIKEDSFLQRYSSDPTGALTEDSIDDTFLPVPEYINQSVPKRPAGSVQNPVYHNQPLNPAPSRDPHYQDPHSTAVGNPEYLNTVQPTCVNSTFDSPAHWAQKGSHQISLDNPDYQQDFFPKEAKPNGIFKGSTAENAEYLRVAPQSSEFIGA
- test settings: at 1 µM
# label = bin(measured inhibition), where bins are LOW: < 2%; MID: ≥ 2% and < 6%; HIGH: ≥ 6%

Reference set (10 entries):
NS(=O)(=O)c1ccc(-c2ccc3c(NC(=O)C4CC4)n[nH]c3c2)cc1 LOW
CCn1c(-c2nonc2N)nc2c(C#CC(C)(C)O)nc(O[C@@H](CN)c3ccccc3)cc21 MID
NC(=O)c1sc(-n2cnc3cc(C(F)(F)F)ccc32)cc1OCc1ccccc1Br LOW
CCn1c(-c2nonc2N)nc2c(C#CC(C)(C)O)ncc(OCC3CCNCC3)c21 HIGH
NS(=O)(=O)c1ccc(N/C=C2\C(=O)Nc3ccc4ncsc4c32)cc1 MID
COc1cc2c(cc1Nc1nc(Nc3ccsc3C(N)=O)c3cc[nH]c3n1)N(C(=O)CN(C)C)CCC2 HIGH
COc1cc(C=NNc2ncnc3c2cnn3Cc2ccccc2)ccc1O HIGH
Nc1nonc1-c1nc2cnccc2n1C1CCCCC1 LOW
CCn1c(-c2nonc2N)nc2c(C#CC(C)(C)O)ncc(OC[C@@H]3CCCN3)c21 MID
Cc1cc(-c2ccco2)cc(C)c1/C=C/c1cncc(-c2nn[nH]n2)c1 LOW

In: Field: class (inhibition) — entry: `Fc1ccc(-c2ncn(C3CCNCC3)c2-c2ccnc(Oc3ccccc3)n2)cc1`
Out: HIGH

====

- system name: Inhibitor of nuclear factor kappa-B kinase subunit epsilon (Homo sapiens) (UniProt Q14164);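 further: reported values are averaged percent inhibition figures against human IKKε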
- Sequence (whole entry): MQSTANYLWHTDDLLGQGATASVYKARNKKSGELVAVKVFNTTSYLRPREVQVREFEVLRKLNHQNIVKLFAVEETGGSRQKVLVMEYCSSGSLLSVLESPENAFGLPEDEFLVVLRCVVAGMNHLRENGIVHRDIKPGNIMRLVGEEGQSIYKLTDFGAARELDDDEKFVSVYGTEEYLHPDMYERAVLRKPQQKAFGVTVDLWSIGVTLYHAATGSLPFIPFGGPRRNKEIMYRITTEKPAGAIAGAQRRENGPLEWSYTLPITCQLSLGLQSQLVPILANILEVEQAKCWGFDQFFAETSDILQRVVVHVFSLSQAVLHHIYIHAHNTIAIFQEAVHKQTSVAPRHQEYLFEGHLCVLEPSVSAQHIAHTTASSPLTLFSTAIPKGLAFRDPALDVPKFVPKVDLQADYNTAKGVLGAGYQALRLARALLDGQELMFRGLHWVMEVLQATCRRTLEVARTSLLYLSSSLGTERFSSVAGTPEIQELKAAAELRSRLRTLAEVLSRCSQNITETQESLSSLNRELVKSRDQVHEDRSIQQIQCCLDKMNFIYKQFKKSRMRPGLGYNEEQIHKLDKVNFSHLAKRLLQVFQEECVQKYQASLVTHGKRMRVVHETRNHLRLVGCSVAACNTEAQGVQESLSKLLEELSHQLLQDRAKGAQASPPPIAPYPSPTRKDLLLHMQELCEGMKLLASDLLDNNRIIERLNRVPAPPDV
- test settings: at 1 µM
result type: inhibition (%)
Lab book: enter the figure in %, no units written.

COc1cccc(COc2cc(-n3cnc4ccccc43)sc2C(N)=O)c1 -7.06
Fc1ccc(-c2ncn(C3CCNCC3)c2-c2ccnc(Oc3ccccc3)n2)cc1 3.7
CCn1c(-c2nonc2N)nc2c(C#CC(C)(C)O)ncc(OCC3CCNCC3)c21 99.1
Nc1nonc1-c1nc2cnccc2n1C1CCCCC1 16.2
Cc1cc(-c2ccco2)cc(C)c1/C=C/c1cncc(-c2nn[nH]n2)c1 3.83
NC(=O)c1sc(-n2cnc3cc(C(F)(F)F)ccc32)cc1OCc1ccccc1Br 3.62

In: Quick one: inhibition of `COc1cc(C=NNc2ncnc3c2cnn3Cc2ccccc2)ccc1O` ?
Out: -4.1

Data origin, for the record: ChEMBL document CHEMBL1961873
